- target-system: benzodiazepine receptors
- run-description: specific binding to benzodiazepine receptors, [3H]-diazepam displacement
- test-parameters: [3H]diazepam 2 nM, pH 7.4, 4° C., 20 minutes

{"compound": "O=C(CC1c2ccccc2C(=O)N1c1ccc2ccc(Cl)nc2n1)N1CCC(=NO)CC1 (centres unmarked)", "IC50": "0.645 nM"}
{"compound": "O=C(CC1c2ccccc2C(=O)N1c1ccc2ccc(Cl)nc2n1)N1CCC(O)CC1 (centres unmarked) [drawing 34]", "IC50": "0.794 nM"}
{"compound": "O=C(CC1c2ccccc2C(=O)N1c1ccc2ccc(Cl)nc2n1)N1CCC2(CC1)OCCO2 (centres unmarked) [drawing 17]", "IC50": "0.38 nM"}
{"compound": "COc1ccc(N2C(=O)c3ccc(Cl)cc3C2CC(=O)N2CCC(=NO)CC2)cc1 (centres unmarked)", "IC50": "3.47 nM"}
{"compound": "O=C(CC1c2ccccc2C(=O)N1c1ccc2ccc(Cl)nc2n1)N1CCC2(CC1)OCCCO2 (centres unmarked)", "IC50": "4.9 nM"}
